These data points were gathered from the supplement of paper PMC6555819.

test system: FXR:RXRa (NR concentration 270 nM, RXRa partner concentration 90 nM); experiment: PBM binding z-score (relative to random genomic background probes); higher = stronger binding; sequences stand for … in GC…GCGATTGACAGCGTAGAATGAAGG
Hi, to clarify the labels: true covers PBM binding z-score from 1 upward, false covers anything below 1.

chainSequence	targetEntity	assignedClass
TTACCAAGGTGAGCTGAGGTCGTTGATCCAACTC	FXR:RXRa (NR concentration 270 nM, RXRa partner concentration 90 nM)	true
GCTATTAGTTGAAAGGGCAACAGAATGATTCTCG	FXR:RXRa (NR concentration 270 nM, RXRa partner concentration 90 nM)	false

Kindly determine if PBM binding z-score recorded for TAGACTAGGTCATGCGGGCCAGTATAGTGTCGGC is above or exactly 1.
true

Could you please find out whether CTACCAAGGGGAACAAGGTCGTTGATTACTATTC has PBM binding z-score that meets 1 or exceeds it?
false

Kindly determine if PBM binding z-score recorded for TCTTGGAGATCAATAGAGGTTAAGAAAGTGCGCT is above or exactly 1.
true
